Property: Drug (μg/mL SEM); scope: individual compounds
System: male Sprague-Dawley rats
Assay: Cardiovascular Assay in anesthetized rats
Type: in vivo
Conditions: plasma at end of infusion, dose 30 mg/kg, rat

compound | Drug (μg/mL SEM)
CO[C@@H](c1c(Nc2ccc([C@H](N(C)C(=O)C3CCN(C(C)=O)CC3)C(F)(F)F)cc2)cnc2sc(C)nc12)C(F)F [Example 33] | 34.10 ± 1.95 µg/mL
CO[C@@H](C)c1c(Nc2ccc([C@H](N(C)C(=O)C3CCN(C(C)=O)CC3)C(F)(F)F)cc2)cnc2sc(C)nc12 [Example 19] | 25.13 ± 0.98 µg/mL
CO[C@@H](C)c1c(Nc2ccc([C@H](N(C)C(=O)C3CCS(=O)(=O)CC3)C(F)(F)F)cc2)cnc2sc(C)nc12 [Example 1] | 24.00 ± 1.63 µg/mL
CO[C@H](c1c(Nc2ccc([C@H](N(C)C(=O)C3CCS(=O)(=O)CC3)C(F)(F)F)cc2)cnc2sc(C)nc12)C(F)F [Example 3] | 22.87 ± 2.67 µg/mL
CO[C@@H](C)c1c(Nc2ccc([C@H](N(C)C(=O)C3CCS(=O)(=O)CC3)C(F)(F)F)cc2)cnc2cc(Cl)nn12 [Comparative Example A, reference compound] | 12.91 ± 1.71 µg/mL

* * *

Property: EC50; scope: individual compounds
Molecular target: human MALT-1 protein (Homo sapiens (Human), UniProt Q9UDY8)
Sequence (Q9UDY8 whole entry): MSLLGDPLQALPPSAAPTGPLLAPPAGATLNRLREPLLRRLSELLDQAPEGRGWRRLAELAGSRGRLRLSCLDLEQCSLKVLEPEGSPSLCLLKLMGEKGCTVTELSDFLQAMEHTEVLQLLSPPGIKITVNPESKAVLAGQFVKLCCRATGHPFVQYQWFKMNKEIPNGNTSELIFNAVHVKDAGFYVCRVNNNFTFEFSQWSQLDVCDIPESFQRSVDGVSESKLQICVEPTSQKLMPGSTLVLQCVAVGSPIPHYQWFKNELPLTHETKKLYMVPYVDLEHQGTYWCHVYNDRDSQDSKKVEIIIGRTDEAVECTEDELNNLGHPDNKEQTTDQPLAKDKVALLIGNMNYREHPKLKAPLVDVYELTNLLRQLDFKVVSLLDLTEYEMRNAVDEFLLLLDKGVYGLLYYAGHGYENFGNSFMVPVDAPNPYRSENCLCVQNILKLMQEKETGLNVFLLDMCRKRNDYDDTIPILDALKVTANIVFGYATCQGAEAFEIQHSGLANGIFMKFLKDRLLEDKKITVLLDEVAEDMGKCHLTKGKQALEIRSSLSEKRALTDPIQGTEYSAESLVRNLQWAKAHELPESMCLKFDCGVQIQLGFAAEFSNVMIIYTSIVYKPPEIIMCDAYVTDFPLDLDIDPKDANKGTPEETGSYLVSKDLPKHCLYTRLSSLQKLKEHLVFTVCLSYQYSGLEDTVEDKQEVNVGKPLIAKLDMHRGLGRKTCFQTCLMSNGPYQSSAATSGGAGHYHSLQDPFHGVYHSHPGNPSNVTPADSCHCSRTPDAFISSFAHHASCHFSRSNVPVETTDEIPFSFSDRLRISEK
Experiment: MALT-1 Biochemical Assay (Quench-FRET enzyme assay)
Conditions: human MALT-1 6 nM, substrate 2 μM, 40 min preincubation

compound | EC50 / nM
CO[C@@H](C)c1c(Nc2ccc([C@@H](C(F)F)N(C)C(=O)C3CCS(=O)(=O)CC3)cc2)cnc2sc(C)nc12 [Example 4] | 158
CO[C@@H](C)c1c(Nc2ccc([C@H](N(C)C(=O)C3CCN(C(C)=O)CC3)C(F)(F)F)cc2)cnc2sc(C)nc12 [Example 19] | 198
CO[C@@H](C)c1c(Nc2ccc([C@H](N(C)C(=O)C3CCN(C(=O)C(O)CO)CC3)C(F)(F)F)cc2)cnc2sc(C)nc12 (stereo partly shown) [Example 24] | 979
CO[C@H](c1c(Nc2ccc([C@@H](C(F)F)N(C)C(=O)C3CCS(=O)(=O)CC3)cc2)cnc2sc(C)nc12)C(F)(F)F [Example 14] | 97
CO[C@H](c1c(Nc2ccc([C@H](N(C)C(=O)C3CCS(=O)(=O)CC3)C(F)(F)F)cc2)cnc2sc(C)nc12)C(F)(F)F [Example 2] | 190
Cc1nc2c([C@H](C)C(F)(F)F)c(Nc3ccc([C@H](N(C)C(=O)C4CCS(=O)(=O)CC4)C(F)(F)F)cc3)cnc2s1 (single isomer, unassigned) [Example 39] | 83
CO[C@@H](c1c(Nc2ccc([C@H](N(C)C(=O)C3CCS(=O)(=O)CC3)C(F)(F)F)cc2)cnc2sc(C)nc12)C(F)(F)F [Example 11] | 155
CO[C@@H](C)c1c(Nc2ccc([C@H](N(C)C(=O)C3CCS(=O)(=O)CC3)C(F)(F)F)cc2)cnc2sc(C)nc12 [Example 1] | 91
CO[C@@H](C)c1c(Nc2ccc([C@H](N(C)C(=O)C3CCN(C(=O)[C@H](C)O)CC3)C(F)(F)F)cc2)cnc2sc(C)nc12 [Example 26] | 393
CCN(C(=O)C1CCS(=O)(=O)CC1)[C@@H](c1ccc(Nc2cnc3sc(C)nc3c2[C@H](C)OC)cc1)C(F)(F)F [Example 7] | 135
CO[C@@H](C)c1c(Nc2ccc([C@H](N(C)C(=O)C3CCN(C(=O)CCO)CC3)C(F)(F)F)cc2)cnc2sc(C)nc12 [Example 22] | 228
CO[C@H](C)c1c(Nc2ccc([C@@H](C(F)F)N(C)C(=O)C3CCS(=O)(=O)CC3)cc2)cnc2sc(C)nc12 [Example 12] | 61
CO[C@@H](C)c1c(Nc2c(F)cc([C@H](N(C)C(=O)C3CCS(=O)(=O)CC3)C(F)(F)F)cc2F)cnc2sc(C)nc12 [Example 9] | 102

Origin of values: patent US20230312601A1
